target: recombinant human DPP9 (Homo sapiens, UniProt Q86TI2); construct: purchased R&D Systems; assay: DPP9 inhibition, fluorogenic substrate H-Gly-Pro-AMC; type: biochemical; details: recombinant human DPP9
Sequence (Q86TI2 whole entry): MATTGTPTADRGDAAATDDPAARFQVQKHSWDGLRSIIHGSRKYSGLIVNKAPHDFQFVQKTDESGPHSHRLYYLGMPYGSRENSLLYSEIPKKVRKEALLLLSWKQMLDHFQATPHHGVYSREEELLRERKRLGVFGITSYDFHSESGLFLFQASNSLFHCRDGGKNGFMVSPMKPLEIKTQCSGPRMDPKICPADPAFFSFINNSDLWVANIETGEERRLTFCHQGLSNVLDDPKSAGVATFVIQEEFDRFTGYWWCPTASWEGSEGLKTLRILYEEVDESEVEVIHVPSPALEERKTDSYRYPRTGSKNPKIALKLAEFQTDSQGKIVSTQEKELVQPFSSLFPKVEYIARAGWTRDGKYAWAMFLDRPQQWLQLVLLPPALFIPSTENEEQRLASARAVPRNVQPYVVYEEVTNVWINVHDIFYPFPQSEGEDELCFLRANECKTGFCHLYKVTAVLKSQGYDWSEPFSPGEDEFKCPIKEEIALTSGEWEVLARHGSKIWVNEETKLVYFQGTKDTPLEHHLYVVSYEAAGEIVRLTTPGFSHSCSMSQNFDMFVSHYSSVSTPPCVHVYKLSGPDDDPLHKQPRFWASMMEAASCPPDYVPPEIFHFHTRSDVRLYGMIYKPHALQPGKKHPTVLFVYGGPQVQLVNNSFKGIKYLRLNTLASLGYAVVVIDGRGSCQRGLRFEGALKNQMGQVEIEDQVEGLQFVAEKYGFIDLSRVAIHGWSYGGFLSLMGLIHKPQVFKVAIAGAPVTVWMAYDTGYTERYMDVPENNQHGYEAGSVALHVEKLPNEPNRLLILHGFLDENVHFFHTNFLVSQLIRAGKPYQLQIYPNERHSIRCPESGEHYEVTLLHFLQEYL
pIC50: −log10 of the molar value.
result type: pIC50

chemical_structure=N#C[C@@H]1C[C@H](F)CN1C(=O)CN1CC[C@H](Nc2ccnc3c(C(F)(F)F)cccc23)C1 readout_number=5.36
chemical_structure=CN(c1cnc2ccccc2c1)C1CCN(CC(=O)N2C[C@@H](F)C[C@H]2C#N)CC1 readout_number=5.09
chemical_structure=COc1cnc2cccc(NC3CCN(CC(=O)N4C[C@@H](F)C[C@H]4C#N)CC3)c2c1 readout_number=5.21
chemical_structure=CN(Cc1ccccc1)C(=O)c1ccc(N[C@H]2CCN(CC(=O)N3CCC[C@H]3C#N)C2)c2cccnc12 readout_number=5.92
chemical_structure=CC(=O)Nc1ccc(N[C@H]2CCN(CC(=O)N3CCC[C@H]3C#N)C2)c2cccnc12 readout_number=4.97
chemical_structure=N#C[C@@H]1C[C@H](F)CN1C(=O)CN1CC[C@H](Nc2ccc(C(=O)Nc3cccnc3)c3ncccc23)C1 readout_number=7.06
chemical_structure=N#C[C@@H]1C[C@H](F)CN1C(=O)CN1CC[C@@H](Nc2cc(C(F)(F)F)cc3ncccc23)C1 readout_number=5.17
chemical_structure=Cc1ccc2ncccc2c1N[C@H]1CCN(CC(=O)N2CCC[C@H]2C#N)C1 readout_number=4.36
chemical_structure=CNC(=O)c1ccc(NC2CCN(CC(=O)N3C[C@@H](F)C[C@H]3C#N)CC2)c2cccnc12 readout_number=5.88
chemical_structure=N#C[C@@H]1C[C@H](F)CN1C(=O)CN1CCC(Nc2cccc3cnccc23)CC1 readout_number=5.28

P = N#C[C@@H]1C[C@H](F)CN1C(=O)CN1CC[C@H](Nc2cc(F)cc3ncccc23)C1
Q = CNC(=O)c1ccc(N[C@H]2CCN(CC(=O)N3C[C@@H](F)C[C@H]3C#N)C2)c2cccnc12
Higher pIC50: P or Q ? Let me know the label of the one you choose.
Q

P = N#C[C@@H]1C[C@H](F)CN1C(=O)CN1CCC(Nc2ccc(Cl)c3cnccc23)CC1
Q = COc1ccc2nccc(O[C@H]3CCN(CC(=O)N4C[C@@H](F)C[C@H]4C#N)C3)c2c1
Looking at P and Q , which one comes out lower in pIC50 terms? Let me know the label of the one you choose.
Q

---

target: recombinant human DPP9 (Homo sapiens); construct: purchased R&D Systems; assay: DPP9 inhibition, fluorogenic substrate H-Gly-Pro-AMC; format: biochemical; details: recombinant human DPP9
result type: IC50 (µM)

chemical_structure=N#C[C@@H]1C[C@H](F)CN1C(=O)CN1CCC(Nc2cccc3sccc23)CC1 value_unit=µM readout_number=6.52
chemical_structure=N#C[C@@H]1CCCN1C(=O)CN1CC[C@H](Nc2cnc3ccccc3c2)C1 value_unit=µM readout_number=36.3
chemical_structure=N#Cc1ccc2c(N[C@H]3CCN(CC(=O)N4CCC[C@H]4C#N)C3)cccc2n1 value_unit=µM readout_number=21.6
chemical_structure=COc1ccc2ncccc2c1N[C@H]1CCN(CC(=O)N2C[C@@H](F)C[C@H]2C#N)C1 value_unit=µM readout_number=7.71
chemical_structure=N#C[C@@H]1C[C@H](F)CN1C(=O)CN1CC[C@@H](Nc2ccc3ncccc3c2)C1 value_unit=µM readout_number=2.56
chemical_structure=N#C[C@@H]1C[C@H](F)CN1C(=O)CN1CCC(Nc2cccc3ncsc23)CC1 value_unit=µM readout_number=0.945
chemical_structure=COc1cccc2c(OC3CCN(CC(=O)N4C[C@@H](F)C[C@H]4C#N)CC3)ccnc12 value_unit=µM readout_number=5.97
chemical_structure=N#C[C@@H]1C[C@H](F)CN1C(=O)CN1CCC(Oc2ccc3cnccc3c2)CC1 value_unit=µM readout_number=10.3
chemical_structure=N#C[C@@H]1CCCN1C(=O)CN1CC[C@@H](Nc2ccc(F)c3ncccc23)C1 value_unit=µM readout_number=10.9
chemical_structure=CN(c1cc2ccccc2cn1)C1CCN(CC(=O)N2C[C@@H](F)C[C@H]2C#N)CC1 value_unit=µM readout_number=7.07

1 = N#C[C@@H]1C[C@H](F)CN1C(=O)CN1CC[C@H](Nc2ccc3ncccc3c2)C1
2 = Cc1ccc2ncccc2c1N[C@H]1CCN(CC(=O)N2C[C@@H](F)C[C@H]2C#N)C1
Looking at 1 and 2 , which one comes out lower in IC50 terms? Let me know the label of the one you choose.
1
(1: 3.69 µM, 2: 8.43 µM)

1 = N#C[C@@H]1C[C@H](F)CN1C(=O)CN1CC[C@@H](Nc2ccc(C(F)(F)F)c3ncccc23)C1
2 = N#C[C@@H]1CCCN1C(=O)CN1CC[C@@H](Nc2ccc3ncccc3c2)C1
Looking at 1 and 2 , which one comes out lower in IC50 terms? Let me know the label of the one you choose.
1
